Each entry below carries its reported inhibition at 0.03 µM.
Target: UniProt:A0A9L0T8T9
Sequence (A0A9L0T8T9 2-534): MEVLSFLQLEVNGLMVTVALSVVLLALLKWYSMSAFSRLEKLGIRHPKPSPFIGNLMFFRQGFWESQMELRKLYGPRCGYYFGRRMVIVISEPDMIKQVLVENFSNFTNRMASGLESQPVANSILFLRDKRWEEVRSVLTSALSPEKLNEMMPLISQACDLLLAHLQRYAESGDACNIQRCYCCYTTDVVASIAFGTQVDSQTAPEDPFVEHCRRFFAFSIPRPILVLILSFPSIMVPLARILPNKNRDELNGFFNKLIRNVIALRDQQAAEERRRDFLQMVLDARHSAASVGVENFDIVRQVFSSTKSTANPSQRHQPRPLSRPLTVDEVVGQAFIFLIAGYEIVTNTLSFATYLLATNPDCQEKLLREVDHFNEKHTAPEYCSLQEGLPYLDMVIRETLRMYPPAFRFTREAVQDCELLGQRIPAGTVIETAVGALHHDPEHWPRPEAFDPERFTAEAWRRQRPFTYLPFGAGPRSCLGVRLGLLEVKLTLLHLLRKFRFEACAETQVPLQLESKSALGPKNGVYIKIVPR
Test: Inhibitory Action on Thromboxane A2 (TXA2) Synthetase (indomethacin-treated horse platelet microsomes, TXB2 radioimmunoassay)
Type: biochemical
Settings: 3 × 10^-8 M
reportedEndpoint: inhibition at 0.03 µM (%)

>  <compound>
CC(C)(CCC/C=C(/c1cccnc1)c1cccs1)C(=O)O

>  <reportedEndpoint>
inhibition at 0.03 µM

>  <unitText>
%

>  <readoutNumber>
62

$$$$
>  <compound>
CC(C)(O)C(CCC/C=C(\c1ccccc1)c1cccnc1)C(=O)O (stereo not drawn)

>  <reportedEndpoint>
inhibition at 0.03 µM

>  <unitText>
%

>  <readoutNumber>
41

$$$$
>  <compound>
C=C(C)C(CCC/C=C(\c1ccccc1)c1cccnc1)C(=O)O (stereo not drawn)

>  <reportedEndpoint>
inhibition at 0.03 µM

>  <unitText>
%

>  <readoutNumber>
59

$$$$

---

Biological target: Thromboxane A2 (TXA2) synthetase (Equus caballus, UniProt A0A9L0T8T9)
Sequence (A0A9L0T8T9 2-534): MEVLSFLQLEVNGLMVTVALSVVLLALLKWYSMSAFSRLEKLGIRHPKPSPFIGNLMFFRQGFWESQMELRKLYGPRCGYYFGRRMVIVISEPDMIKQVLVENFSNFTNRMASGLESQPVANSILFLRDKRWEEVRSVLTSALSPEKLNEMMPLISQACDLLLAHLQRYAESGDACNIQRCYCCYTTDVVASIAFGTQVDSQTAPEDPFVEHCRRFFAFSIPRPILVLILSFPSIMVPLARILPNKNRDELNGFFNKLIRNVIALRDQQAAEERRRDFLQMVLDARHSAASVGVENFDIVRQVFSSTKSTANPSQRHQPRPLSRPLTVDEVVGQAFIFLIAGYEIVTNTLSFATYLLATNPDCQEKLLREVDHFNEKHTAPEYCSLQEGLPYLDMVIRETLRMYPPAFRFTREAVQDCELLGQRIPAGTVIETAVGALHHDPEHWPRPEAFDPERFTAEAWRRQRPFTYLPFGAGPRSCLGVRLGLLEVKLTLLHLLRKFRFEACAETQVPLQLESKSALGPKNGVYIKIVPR
Assay: Inhibitory Action on Thromboxane A2 (TXA2) Synthetase (indomethacin-treated horse platelet microsomes, TXB2 radioimmunoassay)
Assay type: biochemical
Conditions: 3 × 10^-8 M

>  <compound>
O=C(O)C(CCC/C=C(\c1ccccc1)c1cccnc1)C1=CCCC1 (stereo not drawn) [Compound 5-i]

>  <inhibition at 0.03 µM>
32%

$$$$
>  <compound>
CSC(CCC/C=C(\c1ccccc1)c1cccnc1)C(=O)O (stereo not drawn) [Compound 4-a]

>  <inhibition at 0.03 µM>
52%

$$$$
>  <compound>
N#Cc1ccc(CC(CCC/C=C(\c2ccccc2)c2cccnc2)C(=O)O)cc1 (stereo not drawn) [3'-n]

>  <inhibition at 0.03 µM>
57%

$$$$
>  <compound>
Cc1ccc(S(=O)(=O)C(CCCC/C=C(/c2ccccc2)c2cccnc2)C(=O)O)cc1 (stereo not drawn) [Compound 1-b]

>  <inhibition at 0.03 µM>
45%

$$$$
>  <compound>
CC(C)(CCC/C=C(\c1ccccc1)c1cccnc1)C(=O)O [Compound 2-a]

>  <inhibition at 0.03 µM>
83%

$$$$
>  <compound>
O=C(O)C(CCC/C=C(\c1ccccc1)c1cccnc1)Sc1ccccc1 (stereo not drawn) [Compound 4-b]

>  <inhibition at 0.03 µM>
60%

$$$$
>  <compound>
CC(C)(CCCC/C=C(/c1ccccc1)c1cccnc1)C(=O)O [Compound 1-m]

>  <inhibition at 0.03 µM>
44%

$$$$
>  <compound>
O=C(O)C(CCC/C=C(/c1ccccc1)c1cccnc1)Sc1ccccc1 (stereo not drawn) [Compound 4-c]

>  <inhibition at 0.03 µM>
50%

$$$$
>  <compound>
O=C(O)C(CCC/C=C(/c1ccccc1)c1cccnc1)Cc1ccccc1 (stereo not drawn) [3'-e]

>  <inhibition at 0.03 µM>
33%

$$$$
